All values here come from patent US11414454B2.

tgt: RPtag (large)
assay_protocol: Buffer additive screen, Kd by fluorescence anisotropy
Assay type: binding, Thermoanaerobacter tengcongensis
condition_details: NiCl2 (100 mM)
pKd: −log10 of the molar value. No end group written: not given here.

sequence_data | pKd
KIANFIPAELKLITKANVQ [Nd2, p5a, e18a, KIANFIPAELKLITKANVQ] | 8.66
PAELKLITK [Nd8, Cd4, PAELKLITK] | 7.38

###

# pKd per record follows
tgt: RPtag (large)
assay_protocol: Buffer additive screen, Kd by fluorescence anisotropy
Assay type: binding, Thermoanaerobacter tengcongensis
condition_details: EtOH (20%)
pKd: −log10 of the molar value. No end group written: not given here.
measurement_kind: pKd

sequence_data | tgt | measurement_kind | endpoint_result
KIANFIPAELKLITKANVQ [Nd2, p5a, e18a, KIANFIPAELKLITKANVQ] | RPtag (large) | pKd | 10.00
PAELKLITK [Nd8, Cd4, PAELKLITK] | RPtag (large) | pKd | 6.13

###

tgt: RPtag (large)
assay_protocol: Fluorescence anisotropy Kd of rhodamine labeled RPtag (small) peptides for RPtag (large)
Type: binding, Thermoanaerobacter tengcongensis
condition_details: N-terminal rhodamine tagged peptide, unlabeled RPtag (large), 50 mM Tris pH 8.0, 0.005% Tween 20; mean ± SE; listed as Nd8Cd4
No end group written: not given here.

sequence_data | tgt | Kd
PAELKLITK [Nd8, Cd4, PAELKLITK] | RPtag (large) | ~14 nM

###

Kd values for the sequences below.
tgt: RPtag (large)
assay_protocol: Buffer additive screen, Kd by fluorescence anisotropy
Assay type: binding, Thermoanaerobacter tengcongensis
condition_details: PG (50%)
No end group written: not given here.

sequence_data | tgt | Kd
PAELKLITK [Nd8, Cd4, PAELKLITK] | RPtag (large) | 4600 nM
KIANFIPAELKLITKANVQ [Nd2, p5a, e18a, KIANFIPAELKLITKANVQ] | RPtag (large) | 49 nM

###

Reported pKd values follow for various substances
tgt: RPtag (large)
assay_protocol: Fluorescence anisotropy Kd of rhodamine labeled RPtag (small) peptides for RPtag (large)
Assay type: binding, Thermoanaerobacter tengcongensis
condition_details: N-terminal rhodamine tagged peptide, unlabeled RPtag (large), 50 mM Tris pH 8.0, 0.005% Tween 20; mean ± SE
pKd: −log10 of the molar value. No end group written: not given here.
measurement_kind: pKd

substance | endpoint_result
GEKIPNFIAPELALITKENVQ [k13a] | 8.96
GEKIPN [Cd15] | < 4.00
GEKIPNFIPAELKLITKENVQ [n19a, RPtag(small) with N19 changed to alanine] | 9.59
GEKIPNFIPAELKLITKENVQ [v20a, RPtag(small) with V20 changed to alanine] | 9.74
GEKIPNF [Cd14] | < 4.00
TKENVQ [Nd15] | < 4.00
GEKIPNFIPAELKLITKENV [Cd1] | 9.26
GEKIPNFIPAELK [Cd8] | < 4.00
GEKIPNFIPA [Cd11] | < 4.00
ITKENVQ [Nd14] | < 4.00
GEKIPNFIPAE [Cd10] | < 4.00
GEKIPNFIPAEL [Cd9] | < 4.00
